I'd be grateful if you could share measured pIC50 for these entries.
- measured.on: mPGES-1 (Homo sapiens (Human), UniProt O14684)
- Sequence (O14684 whole entry): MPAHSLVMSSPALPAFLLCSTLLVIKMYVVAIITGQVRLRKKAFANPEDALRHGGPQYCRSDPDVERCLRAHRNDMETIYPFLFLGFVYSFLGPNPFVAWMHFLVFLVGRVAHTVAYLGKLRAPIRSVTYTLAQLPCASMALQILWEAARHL
- experimental.protocol: A549 cell-based assay (PGE2 formation, IL-1β stimulated, 50% human serum)
- measurement.setup: A549 cells, IL-1β 5 ng/ml, read-out: mPGES-1 inhibitory effect in the cell assay, IC50
Answers are plain numbers, as −log10 of the molar value.

Form field pIC50, entry Cn1c(Nc2c(Cl)ccc(CNC(=O)C3CC(F)(F)C3)c2Cl)nc2cc(C(=O)Nc3ccc(F)c(Cl)c3)c(OCC(F)F)cc21 [Example 167] : 8.22

Hi there! I need pIC50 for each item below, if you can.
1. CC(=O)NCc1ccc(Cl)c(Nc2nc3cc(C(=O)NCC(F)(F)F)c(OCC(F)F)cc3n2C)c1Cl [Example 115]
2. Cn1c(Nc2c(Cl)ccc(CNC(=O)C3CCC3)c2Cl)nc2cc(C(=O)Nc3ccc(F)c(Cl)c3)c(OCC(F)F)cc21 [Example 172]
3. Cn1c(Nc2c(Cl)ccc(CNC(=O)CC(F)(F)F)c2Cl)nc2cc(C(=O)NCC(F)(F)F)c(OCC(F)F)cc21 [Example 128]

**Result**
1: 6.52; 2: 8.70; 3: 7.59
